Target: Induced myeloid leukemia cell differentiation protein Mcl-1 (Homo sapiens)
Assay: disruptors of Mcl-1 and Noxa BH3 peptide – biochemical, TR-FRET, 1536-well, primary screen (AID 1022);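 also: His-tagged Mcl-1 with rhodamine Noxa BH3 peptide and terbium anti-His antibody; 0% = Mcl-1 plus Noxa peptide wells and 100% = peptide-only wells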
Settings: TR-FRET Mcl-1/Noxa peptide binding, 2 h; at 21.7 µM; hits give high values
In all, about 220,000 compounds went through this assay and about 3,300 (1.5%) were called active. Only a selection was taken, and actives are over-represented in it overall.
inhibition values by entry
OUTCOME MEASURE: inhibition (%)

SMILES TEXT | TARGET OR SYSTEM | OUTCOME MEASURE | NUMERIC VALUE
CCn1nc(C)c(/C=N/NC(=O)Cc2ccc(Cl)cc2)c1C | Induced myeloid leukemia cell differentiation protein Mcl-1 (Homo sapiens) | inhibition | 91.8
O=C(Nc1cccc2ncccc12)C(Cl)(Cl)Cl | Induced myeloid leukemia cell differentiation protein Mcl-1 (Homo sapiens) | inhibition | 11.1
Cc1ccc(/C=C(\C#N)C(=O)Nc2cccc3ncccc23)o1 | Induced myeloid leukemia cell differentiation protein Mcl-1 (Homo sapiens) | inhibition | 65.7
Cc1ccc(SCC(=O)c2sc(-c3ccccc3)nc2C)cc1 | Induced myeloid leukemia cell differentiation protein Mcl-1 (Homo sapiens) | inhibition | 12
COc1ccc2nc(Nc3nc4ccc(NC(C)=O)cc4s3)sc2c1 | Induced myeloid leukemia cell differentiation protein Mcl-1 (Homo sapiens) | inhibition | 70.9
COc1ccc2nc(Nc3nc4cc5c(cc4s3)OCCO5)sc2c1 | Induced myeloid leukemia cell differentiation protein Mcl-1 (Homo sapiens) | inhibition | -76.2
COc1ccc2nc(NC(=O)c3ccc(Br)s3)sc2c1 | Induced myeloid leukemia cell differentiation protein Mcl-1 (Homo sapiens) | inhibition | 15.7
Cc1cc(N2CCN(c3ccccc3)CC2)nc(N2CCOCC2)n1 | Induced myeloid leukemia cell differentiation protein Mcl-1 (Homo sapiens) | inhibition | 14.2
O=C(Nc1ccc(Cl)cc1)/C(=C1\CCCN1)[N+](=O)[O-] | Induced myeloid leukemia cell differentiation protein Mcl-1 (Homo sapiens) | inhibition | 9.38
N#C/C(=C\N1CCOCC1)S(=O)(=O)c1ccc(Cl)cc1 | Induced myeloid leukemia cell differentiation protein Mcl-1 (Homo sapiens) | inhibition | -9.31
Cc1nc(-c2ccc(Cl)cc2)sc1C(=O)NN | Induced myeloid leukemia cell differentiation protein Mcl-1 (Homo sapiens) | inhibition | -14.8
Cc1nc(-c2ccc(Cl)cc2)sc1C(=O)CBr | Induced myeloid leukemia cell differentiation protein Mcl-1 (Homo sapiens) | inhibition | 61

Cited source: PubChem BioAssay AID1022
